Assay system: Urokinase-type plasminogen activator/surface receptor (Homo sapiens, UniProt P00749+Q03405)
Assay details: Inhibition of uPAR/uPA (unknown origin) interaction assessed as dissociation constant by fluorescence polarization (FP) assay
pKi values by entry
The read-out pKi is expressed as -log10 of concentration in moles per litre.

[
  {
    "Molecule": "NC(=O)C[C@H](C(=O)N1CCN([C@H](CO)C(N)=O)CC1)N1CCN(C(=O)[C@H](N)Cc2ccccc2)CC1",
    "Value observed": 4.88
  },
  {
    "Molecule": "NCCCC[C@H](C(=O)N1CCN([C@H](Cc2ccccc2)C(N)=O)CC1)N1CCN(C(=O)[C@H](N)CO)CC1",
    "Value observed": 5.56
  },
  {
    "Molecule": "CC[C@H](C)[C@@H](C(N)=O)n1cc([C@@H](CO)NC(=O)N2CCN([C@@H](CO)C(=O)N3CCN([C@@H](CCCCN)C(=O)O)CC3)CC2)nn1",
    "Value observed": 5.59
  }
]

Query :: What does the data say about its pKi? Entry: `NCCCC[C@H](C(=O)N1CCN([C@@H](CO)C(N)=O)CC1)n1cc([C@@H](Cc2ccccc2)N2C(=O)N[C@@H](CO)C2=O)nn1`
Result :: 5.66

Query :: Fill in: pKi of `NCCCC[C@H](C(=O)N1CCN([C@@H](Cc2ccccc2)C(N)=O)CC1)N1CCN(C(=O)[C@H](N)CO)CC1` is ___
Result :: 5.21

Query :: Which pKi value is on record for `Cc1cccc2c(C(=O)N3CCN(c4c(C)n(C)c(=O)n(C)c4=O)CC3)cc(-c3ccccc3)nc12` ?
Result :: 5.60

Query :: Could you share which pKi value was measured for `CC[C@H](C)[C@@H](C(N)=O)n1cc([C@@H](CO)N2C(=O)N[C@@H](Cc3ccccc3)C2=O)nn1` ?
Result :: 5.12

Query :: # get_value(readout='pKi', item= Cc1ccc(N2C(=O)C(O)=C(C(=O)c3ccc(Cl)cc3)C2c2cccc(F)c2)cc1Br (stereo not drawn) )
Result :: 6.15
